# experiment.summary: self-splicing fitness, log relative to wild type (ln ratio); higher = more splicing; Tetrahymena group I intron in knt gene, E. coli kanamycin selection, DiMSum; sequences stand for … in CUCUCU…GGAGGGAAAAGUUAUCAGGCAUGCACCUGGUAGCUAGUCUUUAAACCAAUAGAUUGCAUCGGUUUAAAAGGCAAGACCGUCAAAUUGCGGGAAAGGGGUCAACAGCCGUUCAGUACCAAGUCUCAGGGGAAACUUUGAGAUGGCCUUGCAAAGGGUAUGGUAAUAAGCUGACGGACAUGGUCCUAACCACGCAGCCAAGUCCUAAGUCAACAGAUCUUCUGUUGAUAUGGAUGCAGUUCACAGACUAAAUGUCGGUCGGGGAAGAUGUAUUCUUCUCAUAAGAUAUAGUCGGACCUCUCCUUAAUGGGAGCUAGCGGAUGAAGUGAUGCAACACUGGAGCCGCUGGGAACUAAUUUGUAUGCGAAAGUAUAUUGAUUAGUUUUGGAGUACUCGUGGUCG;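 note: selection with 25 µg/mL kanamycin versus none on LB agar overnight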
# measurement.context: 37 °C
outcome.measure: self-splicing fitness (ln)
Give bare numbers.

Here's what some known entries look like.
According to the records, this sequence `CCGUAGCAAUAUUACGGGGG` displays self-splicing fitness (ln) of -3.23

According to the records, this sequence `UUAUAGCAAUAUUACGGCAU` displays self-splicing fitness (ln) of -2.3

According to the records, this sequence `CUUUAGCAAUAUUACGAUGG` displays self-splicing fitness (ln) of -0.752

Required: self-splicing fitness (ln), one value per sequence below.
1. ACUGAGCAAUAUUACGUCCA
2. UCUCAGCAAUAUUACGUUCC
3. UAACAGCAAUAUUACGGCGA
4. AAACAGCAAUAUUACGUGAA
5. UCAGAGCAAUAUUACGCUGC

Marked response:
1. -2
2. -0.417
3. -0.198
4. -0.646
5. -0.708

* * *

# experiment.summary: self-splicing fitness, log relative to wild type (ln ratio); higher = more splicing; Tetrahymena group I intron in knt gene, E. coli kanamycin selection, DiMSum; sequences stand for … in CUCUCU…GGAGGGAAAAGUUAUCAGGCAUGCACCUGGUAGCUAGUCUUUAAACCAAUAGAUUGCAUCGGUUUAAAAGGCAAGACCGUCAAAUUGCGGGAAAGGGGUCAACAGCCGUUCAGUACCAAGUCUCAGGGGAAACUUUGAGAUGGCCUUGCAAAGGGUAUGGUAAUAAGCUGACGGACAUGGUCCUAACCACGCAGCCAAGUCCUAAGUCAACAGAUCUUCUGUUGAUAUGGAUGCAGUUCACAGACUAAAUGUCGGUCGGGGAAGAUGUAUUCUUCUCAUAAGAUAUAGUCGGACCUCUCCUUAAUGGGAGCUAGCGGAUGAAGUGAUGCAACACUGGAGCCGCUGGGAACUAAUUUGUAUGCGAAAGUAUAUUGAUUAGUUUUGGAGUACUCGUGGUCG
# measurement.context: 30 °C
outcome.measure: self-splicing fitness (ln)
One number for each entry.

Required: self-splicing fitness (ln), one value per sequence below.
1. CUCGAGCAAUAUUACGGGAU
2. AACCAGCAAUAUUACGGAUC
3. UCGAAGCAAUAUUACGCAUU

Marked response:
1. -3.84
2. -2.84
3. -1.97

* * *

# experiment.summary: self-splicing fitness, log relative to wild type (ln ratio); higher = more splicing; Tetrahymena group I intron in knt gene, E. coli kanamycin selection, DiMSum; sequences stand for … in CUCUCU…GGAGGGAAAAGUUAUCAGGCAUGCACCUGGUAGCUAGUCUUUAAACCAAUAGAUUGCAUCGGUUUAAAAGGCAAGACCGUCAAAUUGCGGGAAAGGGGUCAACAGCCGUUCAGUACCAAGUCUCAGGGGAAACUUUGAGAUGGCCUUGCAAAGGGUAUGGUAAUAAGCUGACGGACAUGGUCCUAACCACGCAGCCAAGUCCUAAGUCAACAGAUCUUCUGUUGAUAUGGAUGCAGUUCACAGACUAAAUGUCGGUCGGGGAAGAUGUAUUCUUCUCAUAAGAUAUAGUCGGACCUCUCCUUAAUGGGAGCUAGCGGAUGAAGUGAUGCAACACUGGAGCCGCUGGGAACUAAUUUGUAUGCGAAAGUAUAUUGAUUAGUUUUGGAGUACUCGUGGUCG
# measurement.context: 30 °C
outcome.measure: self-splicing fitness (ln)
Answers are plain numbers.

Required: self-splicing fitness (ln), one value per sequence below.
1. UUGCAGCAAUAUUACGUUAU
2. UUCAAGCAAUAUUACGGUUG
3. CGUAAGCAAUAUUACGUCCC
4. ACAGAGCAAUAUUACGCCGA
5. UCUGAGCAAUAUUACGAAGG

Marked response:
1. -3.03
2. -2.96
3. -3.09
4. -2.95
5. -3.05
